Molecular target: human Gal-3 (hGal-3) (Homo sapiens (Human))
Sequence (P17931 whole entry): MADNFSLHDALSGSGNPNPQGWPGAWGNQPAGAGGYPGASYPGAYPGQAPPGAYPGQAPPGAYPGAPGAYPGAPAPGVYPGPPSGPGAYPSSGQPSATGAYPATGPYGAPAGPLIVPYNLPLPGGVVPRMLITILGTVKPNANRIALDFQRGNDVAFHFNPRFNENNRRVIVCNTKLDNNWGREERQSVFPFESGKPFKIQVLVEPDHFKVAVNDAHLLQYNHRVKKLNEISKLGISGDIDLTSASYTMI
Experiment: Competitive binding assay: biotinylated hGal-3 to microplate-adsorbed asialofetuin (ASF)
Details: Activity on hGal-3; binding to ASF-coated plates, 3 hours at 4° C.; mean values
pIC50: −log10 of the molar value.
Reported pIC50 values for the following compounds.

[
  {
    "compound": "CC(=O)O[C@@H]1[C@@H](n2cc(-c3ccc(C)c(F)c3F)nn2)[C@@H](O)[C@@H](CO)O[C@@H]1CC1=NOC2(CCOCC2)C1 [Example 1.01]",
    "testTarget": "human Gal-3 (hGal-3) (Homo sapiens (Human))",
    "pIC50": 7.21
  },
  {
    "compound": "CO[C@@H]1[C@@H](n2cc(-c3cc(F)c(F)c(F)c3)nn2)[C@@H](O)[C@@H](CO)O[C@@H]1CC1=NOC2(CCNCC2)C1 [Example 1.07]",
    "testTarget": "human Gal-3 (hGal-3) (Homo sapiens (Human))",
    "pIC50": 6.49
  },
  {
    "compound": "Cc1ccc(-c2cn([C@H]3[C@@H](O)[C@@H](CO)O[C@H](CC4=NOC5(CCC(F)(F)CC5)C4)[C@@H]3O)nn2)c(F)c1F [Example 1.04]",
    "testTarget": "human Gal-3 (hGal-3) (Homo sapiens (Human))",
    "pIC50": 6.77
  },
  {
    "compound": "NC(=O)O[C@@H]1[C@@H](n2cc(-c3cc(F)c(F)c(F)c3)nn2)[C@@H](O)[C@@H](CO)O[C@@H]1CC1=NOC2(CCCCC2)C1 [Example 1.73]",
    "testTarget": "human Gal-3 (hGal-3) (Homo sapiens (Human))",
    "pIC50": 6.96
  }
]

###

Biological target: human Gal-3 (hGal-3) (Homo sapiens (Human))
Reported IC50 values for the following compounds.
readoutKind: IC50 (nM)

[
  {
    "smi": "CO[C@@H]1[C@@H](n2cc(-c3ccc(F)c(F)c3F)nn2)[C@@H](O)[C@@H](CO)O[C@@H]1CC1=NO[C@]2(CC[C@@H](C#N)CC2)C1",
    "testTarget": "human Gal-3 (hGal-3) (Homo sapiens (Human))",
    "readoutValue": 110
  },
  {
    "smi": "CO[C@@H]1[C@@H](n2cc(-c3ccc(C)c(F)c3F)nn2)[C@@H](O)[C@@H](CO)O[C@@H]1CC1=NO[C@]2(CC[C@H](C(C)(C)O)CC2)C1",
    "testTarget": "human Gal-3 (hGal-3) (Homo sapiens (Human))",
    "readoutValue": 190
  },
  {
    "smi": "CO[C@@H]1[C@@H](n2cc(-c3ccc(Cl)c(F)c3F)nn2)[C@@H](O)[C@@H](CO)O[C@@H]1CC1=NO[C@]2(CC[C@@H](C#N)CC2)C1",
    "testTarget": "human Gal-3 (hGal-3) (Homo sapiens (Human))",
    "readoutValue": 90
  },
  {
    "smi": "CO[C@@H]1[C@@H](n2cc(-c3cc(F)c(F)c(F)c3)nn2)[C@@H](O)[C@@H](CO)O[C@@H]1CC1=NOC2(CCN(S(C)(=O)=O)CC2)C1",
    "testTarget": "human Gal-3 (hGal-3) (Homo sapiens (Human))",
    "readoutValue": 530
  },
  {
    "smi": "O=C(CO[C@@H]1[C@@H](n2cc(-c3cc(F)c(F)c(F)c3)nn2)[C@@H](O)[C@@H](CO)O[C@@H]1CC1=NOC2(CCCCC2)C1)N1CCOCC1",
    "testTarget": "human Gal-3 (hGal-3) (Homo sapiens (Human))",
    "readoutValue": 200
  }
]

###

Molecular target: human Gal-1 (hGal-1) (Homo sapiens, UniProt P09382)
Sequence (P09382 2-135 limits assumed): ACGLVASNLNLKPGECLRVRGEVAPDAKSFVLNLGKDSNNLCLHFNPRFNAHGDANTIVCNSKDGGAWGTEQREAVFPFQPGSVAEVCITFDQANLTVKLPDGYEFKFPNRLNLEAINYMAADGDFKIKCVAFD
Assay: Competitive binding assay: biotinylated hGal-1 to microplate-adsorbed asialofetuin (ASF)
Conditions: read-out: Gal-1 IC50; Activities on hGal-1; binding to ASF-coated plates, 3 hours at 4° C.; mean values
pIC50: −log10 of the molar value.

[
  {
    "smi": "OC[C@H]1O[C@H](CC2=NOC3(CCCCC3)C2)[C@H](O)[C@@H](n2cc(-c3cc(F)c(F)c(F)c3)nn2)[C@H]1O",
    "pIC50": 5.66
  }
]

###

pIC50: −log10 of the molar value.
Reported pIC50 for target or system human Gal-3 (hGal-3) (Homo sapiens (Human), UniProt P17931), by entry.
readoutKind: pIC50

[
  {
    "compound": "CO[C@@H]1[C@@H](n2cc(-c3ccc(C)c(F)c3F)nn2)[C@@H](O)[C@@H](CO)O[C@@H]1CC1=NOC2(CCC(F)(F)CC2)C1",
    "readoutKind": "pIC50",
    "readoutValue": 6.96
  },
  {
    "compound": "CO[C@@H]1[C@@H](n2cc(-c3cc(F)c(F)c(F)c3)nn2)[C@@H](O)[C@@H](CO)O[C@@H]1CC1=NOC2(CCC(O)CC2)C1 (some centres unmarked)",
    "readoutKind": "pIC50",
    "readoutValue": 6.60
  },
  {
    "compound": "CO[C@@H]1[C@@H](n2cc(-c3cc(F)c(F)c(F)c3)nn2)[C@@H](O)[C@@H](CO)O[C@@H]1CC1=NO[C@]2(CC[C@H](C(C)C)CC2)C1",
    "readoutKind": "pIC50",
    "readoutValue": 5.96
  },
  {
    "compound": "CO[C@@H]1[C@@H](n2cc(-c3cc(F)c(F)c(F)c3)nn2)[C@@H](O)[C@@H](CO)O[C@@H]1CC1=NOC2(CCCCCC2)C1",
    "readoutKind": "pIC50",
    "readoutValue": 6.80
  },
  {
    "compound": "CCC(CC)NC1CCC2(CC1)CC(C[C@H]1O[C@H](CO)[C@H](O)[C@H](n3cc(-c4cc(F)c(F)c(F)c4)nn3)[C@H]1OC)=NO2 (some centres unmarked)",
    "readoutKind": "pIC50",
    "readoutValue": 6.41
  },
  {
    "compound": "OC[C@H]1O[C@H](CC2=NOC3(CCCCC3)C2)[C@H](O)[C@@H](n2cc(-c3cc(F)c(F)c(F)c3)nn2)[C@H]1O",
    "readoutKind": "pIC50",
    "readoutValue": 6.55
  },
  {
    "compound": "CO[C@@H]1[C@@H](n2cc(-c3ccc(F)c(F)c3F)nn2)[C@@H](O)[C@@H](CO)O[C@@H]1CC1=NOC2(CCC(C#N)CC2)C1 (some centres unmarked)",
    "readoutKind": "pIC50",
    "readoutValue": 6.80
  },
  {
    "compound": "CO[C@@H]1[C@@H](n2cc(-c3cc(F)c(F)c(F)c3)nn2)[C@@H](O)[C@@H](CO)O[C@@H]1CC1=NO[C@]2(CC[C@H](C#N)CC2)C1",
    "readoutKind": "pIC50",
    "readoutValue": 7.05
  },
  {
    "compound": "COC(=O)CO[C@@H]1[C@@H](n2cc(-c3ccc(C)c(F)c3F)nn2)[C@@H](O)[C@@H](CO)O[C@@H]1CC1=NOC2(CCC(F)(F)CC2)C1",
    "readoutKind": "pIC50",
    "readoutValue": 6.85
  },
  {
    "compound": "CO[C@@H]1[C@@H](n2cc(-c3cc(F)c(F)c(F)c3)nn2)[C@@H](O)[C@@H](CO)O[C@@H]1CC1=NOC2(CCCC2)C1",
    "readoutKind": "pIC50",
    "readoutValue": 6.02
  },
  {
    "compound": "CO[C@@H]1[C@@H](n2cc(-c3ccc(Cl)c(F)c3F)nn2)[C@@H](O)[C@@H](CO)O[C@@H]1CC1=NOC2(C1)C[C@@H](C(=O)O)N(C(=O)OC(C)(C)C)C2 (mixture of isomers)",
    "readoutKind": "pIC50",
    "readoutValue": 6.57
  }
]

###

Target: human Gal-1 (hGal-1) (Homo sapiens, UniProt P09382)
Assay: Competitive binding assay: biotinylated hGal-1 to microplate-adsorbed asialofetuin (ASF)
Settings: Activities on hGal-1; binding to ASF-coated plates, 3 hours at 4° C.; mean values; read-out: Gal-1 IC50
Reported IC50 values for the following compounds.

[
  {
    "compound": "CO[C@@H]1[C@@H](n2cc(-c3cc(F)c(F)c(F)c3)nn2)[C@@H](O)[C@@H](CO)O[C@@H]1CC1=NO[C@]2(CC[C@@H](NC(C)=O)CC2)C1",
    "outputUnit": "µM",
    "IC50": 3.6
  },
  {
    "compound": "CO[C@@H]1[C@@H](n2cc(-c3cc(F)c(F)c(F)c3)nn2)[C@@H](O)[C@@H](CO)O[C@@H]1CC1=NO[C@]2(CC[C@@H](C#N)CC2)C1",
    "outputUnit": "µM",
    "IC50": 7.1
  },
  {
    "compound": "CO[C@@H]1[C@@H](n2cc(-c3cc(F)c(F)c(F)c3)nn2)[C@@H](O)[C@@H](CO)O[C@@H]1CC1=NOC2(CCC(NC(=O)OC(C)(C)C)CC2)C1 (some centres unmarked)",
    "outputUnit": "µM",
    "IC50": 1.5
  },
  {
    "compound": "COC(=O)CO[C@@H]1[C@@H](n2cc(-c3cc(F)c(F)c(F)c3)nn2)[C@@H](O)[C@@H](CO)O[C@@H]1CC1=NOC2(CCCCC2)C1",
    "outputUnit": "µM",
    "IC50": 3.7
  },
  {
    "compound": "CC(=O)O[C@@H]1[C@@H](n2cc(-c3ccc(C)c(F)c3F)nn2)[C@@H](O)[C@@H](CO)O[C@@H]1CC1=NOC2(CCOCC2)C1",
    "outputUnit": "µM",
    "IC50": 4.2
  },
  {
    "compound": "CO[C@@H]1[C@@H](n2cc(-c3cc(F)c(F)c(F)c3)nn2)[C@@H](O)[C@@H](CO)O[C@@H]1CC1=NOC2(CCC(NCC(F)F)CC2)C1 (some centres unmarked)",
    "outputUnit": "µM",
    "IC50": 7.2
  },
  {
    "compound": "COC(=O)CO[C@@H]1[C@@H](n2cc(-c3ccc(C)c(F)c3F)nn2)[C@@H](O)[C@@H](CO)O[C@@H]1CC1=NOC2(CCC(F)(F)CC2)C1",
    "outputUnit": "µM",
    "IC50": 5.6
  },
  {
    "compound": "CO[C@@H]1[C@@H](n2cc(-c3cc(F)c(F)c(F)c3)nn2)[C@@H](O)[C@@H](CO)O[C@@H]1CC1=NOC2(CCNCC2)C1",
    "outputUnit": "µM",
    "IC50": 5.7
  },
  {
    "compound": "O=C(CO[C@@H]1[C@@H](n2cc(-c3cc(F)c(F)c(F)c3)nn2)[C@@H](O)[C@@H](CO)O[C@@H]1CC1=NOC2(CCCCC2)C1)N1CCOCC1",
    "outputUnit": "µM",
    "IC50": 2.9
  },
  {
    "compound": "CO[C@@H]1[C@@H](n2cc(-c3cc(F)c(C)cc3F)nn2)[C@@H](O)[C@@H](CO)O[C@@H]1CC1=NOC2(CCCCC2)C1",
    "outputUnit": "µM",
    "IC50": 2.2
  },
  {
    "compound": "CO[C@@H]1[C@@H](n2cc(-c3cc(F)c(F)c(F)c3)nn2)[C@@H](O)[C@@H](CO)O[C@@H]1CC1=NO[C@]2(CC[C@H](NCC(F)F)CC2)C1",
    "outputUnit": "µM",
    "IC50": 1.8
  }
]

The reported measurements were obtained from patent US20230295182A1.
